# Read-out: growth arrest and DNA damage 45 (GADD45A), GADD45A (gene 1647)
# procedure.details: LTEA_HepaRG_GADD45A: Life Technologies and Expression Analysis (LTEA) Assay for growth arrest and DNA damage 45 (GADD45A) using HepaRG (AID 2283458)
# settings: mRNA level, 48 h; actives raise or lower the signal
The source made the active and inactive calls. How the source made its calls: active means hit-call score of the fitted dose curve at least 0.9, where 1 is the maximum; inactive means score below 0.9.
Please reply with one of these outcomes: active, inactive

So what was the verdict on NC(=O)NN=Cc1ccc([N+](=O)[O-])o1 in this test?
inactive

So what was the verdict on CCCC(CCC)C(=O)O in this test?
inactive

So what was the verdict on Cc1nccn1-c1ccc(Sc2cccc(C3(C(N)=O)CCOCC3)c2)cc1 in this test?
active

So what was the verdict on OC(Cn1cncn1)(Cn1cncn1)c1ccc(F)cc1F in this test?
inactive

So what was the verdict on NC(N)=O in this test?
inactive

So what was the verdict on CCCOc1ccc(S(=O)(=O)N2CCN(CC)CC2)cc1-c1nc2c(CC)n(Cc3ccccn3)nc2c(=O)[nH]1 in this test?
inactive

So what was the verdict on CCCCCCCC/C=C\CCCCCCCC(=O)OC[C@@H](O)[C@H]1OC[C@H](O)[C@H]1O in this test?
inactive

So what was the verdict on C=CN1CCCC1=O in this test?
inactive

So what was the verdict on CCN(CC)C(=S)SSC(=S)N(CC)CC in this test?
inactive

So what was the verdict on O=C(O)c1ccc2c(c1)nc(C(=O)NC1CCN(C3CC3)CC1)n2Cc1cc(-c2ccc(Cl)s2)on1 in this test?
inactive

So what was the verdict on Cc1ccc(S(=O)(=O)NC(=O)NN2CCCCCC2)cc1 in this test?
inactive

So what was the verdict on CCCCC(CC)C(=O)OCCOCCOCCOC(=O)C(CC)CCCC (stereo unspecified) in this test?
inactive

So what was the verdict on OCC(CO)(CO)CO in this test?
inactive

So what was the verdict on CC[C@H](C)C(=O)O[C@H]1C[C@H](O)C=C2C=C[C@H](C)[C@H](CC[C@@H](O)C[C@@H](O)CC(=O)O)[C@H]21 in this test?
inactive

So what was the verdict on COCc1nnc(-c2ccc[n+]([O-])c2)n1-c1c(Cl)c(Cl)cc2[nH]c(=O)c(=O)[nH]c12 in this test?
inactive

So what was the verdict on c1ccc2cc3ccccc3cc2c1 in this test?
inactive

So what was the verdict on C[C@@H](Oc1ccc(CNC(=O)c2cccnc2Oc2ccc3c(c2)OCO3)c(F)c1)C(=O)O in this test?
inactive

So what was the verdict on CC(C)C(=O)Nc1ccc([N+](=O)[O-])c(C(F)(F)F)c1 in this test?
active

So what was the verdict on CCCCCCCCCCCCCCO in this test?
inactive

So what was the verdict on CCCCCCCC1CCC(=O)O1 (stereo unspecified) in this test?
inactive

So what was the verdict on CC(C)CC(C)O (stereo unspecified) in this test?
inactive

So what was the verdict on c1ccc(C(O[C@@H]2CCCN(CCc3ccc4c(c3)OCO4)C2)c2ccccc2)cc1 in this test?
active

So what was the verdict on CCCc1ccccc1 in this test?
inactive

So what was the verdict on NC(=O)N(O)[C@@H]1COc2cc(OCc3ccccc3)ccc21 in this test?
inactive

So what was the verdict on CCc1ccc(O)c(C(C)(C)C)c1 in this test?
inactive

So what was the verdict on OC(CCl)CCl in this test?
inactive

Recorded values, source PubChem BioAssay (EPA / NIEHS).
